target of assay: UniProt Q9HBX9
Sequence (Q9HBX9 whole entry): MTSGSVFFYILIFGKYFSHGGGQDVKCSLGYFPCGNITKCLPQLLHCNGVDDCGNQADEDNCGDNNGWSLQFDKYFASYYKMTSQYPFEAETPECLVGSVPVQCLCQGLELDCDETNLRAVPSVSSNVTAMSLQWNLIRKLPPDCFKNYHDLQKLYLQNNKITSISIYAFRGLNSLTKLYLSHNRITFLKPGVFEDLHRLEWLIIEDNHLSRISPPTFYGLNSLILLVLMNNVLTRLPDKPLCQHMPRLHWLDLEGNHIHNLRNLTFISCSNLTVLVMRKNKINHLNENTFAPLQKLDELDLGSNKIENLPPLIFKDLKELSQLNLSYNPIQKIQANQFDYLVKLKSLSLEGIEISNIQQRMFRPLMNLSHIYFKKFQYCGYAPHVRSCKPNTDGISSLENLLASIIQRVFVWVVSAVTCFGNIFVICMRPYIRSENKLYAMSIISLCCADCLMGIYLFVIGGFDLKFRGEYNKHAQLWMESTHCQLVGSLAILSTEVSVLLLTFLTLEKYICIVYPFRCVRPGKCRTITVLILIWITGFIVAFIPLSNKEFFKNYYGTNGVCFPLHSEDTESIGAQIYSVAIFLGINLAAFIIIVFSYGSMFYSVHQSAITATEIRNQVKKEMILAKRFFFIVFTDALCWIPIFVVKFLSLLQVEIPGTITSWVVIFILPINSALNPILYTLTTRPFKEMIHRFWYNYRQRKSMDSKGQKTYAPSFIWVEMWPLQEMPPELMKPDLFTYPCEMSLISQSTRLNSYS
test: RXFP1 Hu cAMP (Test A)
Format: cell-based
Parameters: expressed in transfected cells; host or cells: Jump-In T-REx CHO-K1 cells (ThermoFisher), induced with 10 ng/ml doxycycline for 24 h
condition details: RXFP1 Hu cAMP
measurement name: Test A Sinf (%)
Enter your answer as a number in %; do not include the unit.

Any idea what Test A Sinf was measured for COc1cc(C#N)c(OC2CCC(C)(C(=O)O)CC2)cc1C(=O)NC1C(C(=O)NCC2(C)CCC2)C2CCC1N2CCC(F)(F)F (single isomer, unassigned) [Example 536] ?
97

Any idea what Test A Sinf was measured for COc1cc(F)c(O[C@H]2CC[C@@H](C(=O)O)CC2)cc1C(=O)N[C@@H]1[C@H]2CC[C@H](C2)[C@@H]1C(=O)Nc1ccc(C(F)F)cc1 ?
95

Any idea what Test A Sinf was measured for COc1cc(F)c(O[C@H]2CC[C@@](C)(C(=O)O)CC2)cc1C(=O)N[C@@H]1[C@H]2CC[C@H](C2)[C@@H]1C(=O)NCC(C)(C)OC ?
105

Any idea what Test A Sinf was measured for COc1cc(F)c(-c2ncc(C(=O)O)s2)cc1C(=O)N[C@H]1[C@@H](C(=O)Nc2cccc(S(=O)(=O)C(F)(F)F)c2)[C@@H]2C=C[C@H]1C2 (racemic) ?
111

Any idea what Test A Sinf was measured for COc1cc(F)c(O[C@H]2CC[C@@](C)(C(=O)O)CC2)cc1C(=O)N[C@@H]1CCC[C@@H]1C(=O)NCC1(C)CCC1 ?
105

Any idea what Test A Sinf was measured for COc1cc(F)c(O[C@H]2CC[C@@H](C(=O)O)CC2)cc1C(=O)N[C@@H]1[C@H]2CC[C@H](C2)[C@@H]1C(=O)Nc1cccc(CF)c1 ?
104

Any idea what Test A Sinf was measured for COc1cc(C#N)c(O[C@H]2CC[C@@](C)(C(=O)O)CC2)cc1C(=O)N[C@@H]1[C@H]2CC[C@H](C2)[C@@H]1C(=O)NCc1ccc(F)c(F)c1 ?
107

Any idea what Test A Sinf was measured for COc1cc(F)c(O[C@H]2CC[C@@](C)(C(=O)O)CC2)cc1C(=O)NC1C(C(=O)Nc2cccc(S(=O)(=O)C(F)(F)F)c2)CC2OCOC21 (single isomer, unassigned) ?
104

Any idea what Test A Sinf was measured for COc1cc(-c2cc(C(=O)N[C@H]3[C@@H](C(=O)Nc4cccc(S(=O)(=O)C(F)(F)F)c4)[C@@H]4C=C[C@H]3C4)c(OC)cc2F)ccc1C(=O)O (racemic) ?
105

Any idea what Test A Sinf was measured for COc1cc(C#N)c(O[C@H]2CC[C@@](C)(C(=O)O)CC2)cc1C(=O)N[C@@H]1[C@H]2CC[C@H](C2)[C@@H]1C(=O)NC12CC(C1)C2 ?
107

Any idea what Test A Sinf was measured for COc1cc(F)c(-c2cnn(CC(=O)O)c2)cc1C(=O)N[C@H]1[C@@H](C(=O)Nc2cccc(S(=O)(=O)C(F)(F)F)c2)[C@@H]2C=C[C@H]1C2 ?
98
